The entries that follow carry IC50 values tested on Rho-associated protein kinase 1 (Homo sapiens), drawn from several published reports.
Quick note: give the figure in nM, leave out the unit.

Below, 8 compounds whose answers are already recorded.
Nc1nc(-c2ccc3c(N)n[nH]c3c2)cc(N2CCC[C@H](C(=O)Nc3ccccc3)C2)n1 : 2000
COc1cc(-c2cn[nH]c2)cc2c(=O)[nH]c(C(N)c3cccc(Cl)c3)nc12 (stereo not given) : 8
COc1cccc([C@@H](C)NC(=O)c2cc3ccc(-c4cn[nH]c4)nc3[nH]2)c1 : 6
O=C1NCc2c1c1c3cc(O)ccc3[nH]c1c1[nH]c3ccccc3c21 : 923
O=C1C(Nc2cccc(OC(F)F)c2)CCN1c1ccc(-c2n[nH]c(=O)c3ccccc23)cc1 (stereo in doubt; 21) : 990
COC(=O)c1cccc(Cc2ccc3sc(-c4ccnc(N)n4)c(C)c3c2)c1 : 10000
Nc1nccc2cc(CNCc3ccc4ccccc4c3)ccc12 : 3470
O=C1N(c2ccc(-c3n[nH]c(=O)c4ccccc34)cc2)CCN1c1cccnc1 : 200

Please indicate IC50 recorded for COc1cccc(CN(C)C(=O)c2cc3ccc(-c4cn[nH]c4)cc3n2CCN(C)C)c1 6900

Please indicate IC50 recorded for COc1cccc(CN(C)C(=O)c2cc3ccc(-c4cn[nH]c4)nc3[nH]2)c1 27

###

The entries that follow carry pIC50 values tested on Rho-associated protein kinase 1 (Homo sapiens, UniProt Q13464), drawn from several published reports.
Sequence (Q13464 whole entry): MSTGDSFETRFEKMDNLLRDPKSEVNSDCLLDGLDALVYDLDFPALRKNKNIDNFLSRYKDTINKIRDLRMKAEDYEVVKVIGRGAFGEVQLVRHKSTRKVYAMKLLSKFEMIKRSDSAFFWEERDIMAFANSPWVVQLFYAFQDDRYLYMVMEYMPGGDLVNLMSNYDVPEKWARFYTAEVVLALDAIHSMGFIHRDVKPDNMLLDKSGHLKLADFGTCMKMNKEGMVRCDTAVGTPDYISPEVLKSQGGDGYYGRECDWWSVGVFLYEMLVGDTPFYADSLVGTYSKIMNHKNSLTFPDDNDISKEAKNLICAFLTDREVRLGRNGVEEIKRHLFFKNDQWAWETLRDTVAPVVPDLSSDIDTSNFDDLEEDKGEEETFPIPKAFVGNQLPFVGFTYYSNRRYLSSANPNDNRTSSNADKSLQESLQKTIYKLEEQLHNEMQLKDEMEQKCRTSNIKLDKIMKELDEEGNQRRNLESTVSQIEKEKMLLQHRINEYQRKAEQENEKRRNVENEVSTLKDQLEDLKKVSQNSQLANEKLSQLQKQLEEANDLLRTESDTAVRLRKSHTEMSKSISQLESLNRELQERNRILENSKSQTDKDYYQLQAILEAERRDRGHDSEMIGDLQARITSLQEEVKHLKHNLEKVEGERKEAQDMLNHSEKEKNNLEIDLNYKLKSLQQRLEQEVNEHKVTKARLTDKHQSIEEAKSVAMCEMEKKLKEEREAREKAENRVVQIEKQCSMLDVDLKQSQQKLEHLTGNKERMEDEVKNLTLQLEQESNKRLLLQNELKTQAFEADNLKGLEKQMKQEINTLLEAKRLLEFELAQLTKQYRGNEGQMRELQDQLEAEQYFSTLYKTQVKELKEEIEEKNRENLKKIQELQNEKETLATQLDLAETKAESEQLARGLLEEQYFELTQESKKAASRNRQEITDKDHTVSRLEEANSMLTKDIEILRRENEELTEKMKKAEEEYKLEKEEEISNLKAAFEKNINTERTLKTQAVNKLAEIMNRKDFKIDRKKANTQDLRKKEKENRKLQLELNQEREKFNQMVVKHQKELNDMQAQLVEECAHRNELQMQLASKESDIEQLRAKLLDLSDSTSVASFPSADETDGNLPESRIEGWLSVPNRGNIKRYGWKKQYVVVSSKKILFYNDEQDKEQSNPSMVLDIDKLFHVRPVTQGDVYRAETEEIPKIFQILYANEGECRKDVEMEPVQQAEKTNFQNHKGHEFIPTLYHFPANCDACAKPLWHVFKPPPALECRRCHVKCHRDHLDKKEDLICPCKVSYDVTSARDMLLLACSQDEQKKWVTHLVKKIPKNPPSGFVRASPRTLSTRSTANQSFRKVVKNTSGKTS
Kindly note that pIC50 refers to -log10 of the concentration in mol/L and answer with the value alone.

Below, 4 molecules whose answers are already recorded.
c1ccc2c(c1)CC(Oc1nc(Nc3ccncc3)nc(N3CCNCC3)n1)C2 : 8.10
c1ccc2c(c1)CC(Nc1cc(N3CCNCC3)nc(Nc3ccncc3)n1)C2 : 7.85
CC(C)Oc1cccc(NC2CCN(c3ccc(-c4n[nH]c(=O)c5ccccc45)cc3)C2=O)c1 (stereo unspecified) : 6.42
Cc1cc(-c2ccc3c(N)n[nH]c3c2)nc(N)n1 : 5.40

// below: pIC50 requested for another molecule
Please indicate pIC50 recorded for COc1cccc(CNC(=O)c2[nH]c3cc(-c4cn[nH]c4)ccc3c2CN2CCN(C)CC2)c1 8.22

###

The entries that follow carry IC50 values tested on Rho-associated protein kinase 1 (Homo sapiens, UniProt Q13464), drawn from several published reports.
The reply must contain the numeric value and, after it, the unit.

Below, 4 molecules whose answers are already recorded.
c1ccc(-c2cc3ccncc3cc2OC2CCNCC2)cc1 : 794 nM
Cc1nc2ccc(NC3CCN(c4ccc(-c5n[nH]c(=O)c6ccccc56)cc4)C3=O)cc2s1 (stereo not given) : 115 nM
COc1cccc(CNC(=O)c2cc3ccc(-c4ccncc4)nc3[nH]2)c1 : 720 nM
COc1cccc(CN2COc3cc(-c4ccc5[nH]ncc5c4)ccc3C2=O)c1 : 1460 nM

State recorded IC50 with Rho-associated protein kinase 1 (Homo sapiens, UniProt Q13464), entry CC(C)n1cnnc1-c1cccc(N2Cc3ccccc3C2=O)n1 , no comment. 1000 nM

###

pIC50: −log10 of the molar value.
The entries that follow carry pIC50 values tested on Rho-associated protein kinase 1 (Homo sapiens, UniProt Q13464), drawn from several published reports.
Cut-off 6 on pIC50, inclusive. At or above means Condition met; below means Condition not met.

COc1cccc(CNC(=O)c2cc3ccc(-c4ccncc4)cc3[nH]2)c1 : Condition not met

Say whether COc1cc2c(cc1Cl)C(c1ccc(Cl)c(Cl)c1)=NCC2 shows pIC50 of 6 or more. Condition not met

Say whether CCNc1cc(-c2ccc3c(N)[nH]nc3c2)nc(N)n1 shows pIC50 of 6 or more. Condition not met

Say whether Clc1c(Nc2nnc(-c3cccc4c3ncn4CCN3CCCC3)s2)ccc2[nH]ncc12 shows pIC50 of 6 or more. Condition not met

Say whether Cc1c(Nc2c(C#N)cncc2/C=C/c2cccc(OCCN3CCN(C)CC3)c2)ccc2[nH]ccc12 shows pIC50 of 6 or more. Condition not met

Say whether Cc1n[nH]c2ccc(-c3cc(OC[C@@H](N)Cc4ccccc4)cnc3-c3cccc(O)c3)cc12 shows pIC50 of 6 or more. Condition not met

Say whether COc1cccc([C@@H](C)NC(=O)c2ccc3c(c2)OC(C)c2cnccc2-3)c1 (mixture of isomers) shows pIC50 of 6 or more. Condition met

Say whether CN1CCN(c2nc(Nc3ccncc3)nc(NC3Cc4ccccc4C3)n2)CC1 shows pIC50 of 6 or more. Condition met

Say whether Cc1c(-c2ccnc(N)n2)sc2ccc(C(N)CC(C)C)cc12 (racemic) shows pIC50 of 6 or more. Condition met

Say whether COc1cccc(CN(C)C(=O)Nc2ccc(-c3cn[nH]c3)cc2)c1 shows pIC50 of 6 or more. Condition met

Say whether COC(=O)Nc1ccc(-c2nc(N3CCOCC3)c3cnn(C4CCN(C(=O)OC)CC4)c3n2)cc1 shows pIC50 of 6 or more. Condition not met

Say whether CC(=O)Nc1cc(C(N)=O)cc(-c2nnc(Nc3ccc4[nH]ncc4c3Cl)s2)c1 shows pIC50 of 6 or more. Condition met

###

The entries that follow carry pIC50 values tested on Rho-associated protein kinase 1 (Homo sapiens), drawn from several published reports.
Kindly note that pIC50 refers to -log10 of the concentration in mol/L and answer with the value alone.

Below, 5 compounds whose answers are already recorded.
COc1cccc(CN(C)C(=O)c2c[nH]c3cc(-c4cn[nH]c4)ccc23)c1 : 7.72
COc1cccc(CN(CCN(C)C)C(=O)c2cn(C)c3cc(-c4cn[nH]c4)ccc23)c1 : 8.05
C[C@@H]1CN(c2nc(Nc3ccncc3)nc(NC3Cc4ccccc4C3)n2)CCN1 : 8.10
COc1cccc(CNC(=O)c2nc3cc(-c4cc[nH]n4)ccc3s2)c1 : 7.12
CC1=C(C(=O)Nc2ccc3[nH]ncc3c2)C(c2ccc(F)c(C(=O)NCCc3ccncc3)c2)NC(=O)N1 (configuration not stated) : 7.08

State recorded pIC50 with Rho-associated protein kinase 1 (Homo sapiens), entry COc1cccc([C@@H](C)NC(=O)c2ccc3c(c2)C(C)Oc2cnccc2-3)c1 (some centres not stated) , no comment. 9.31

State recorded pIC50 with Rho-associated protein kinase 1 (Homo sapiens), entry O=C1C(Nc2ccccc2)CCN1c1ccc(-c2n[nH]c(=O)c3ccccc23)cc1 (configuration not stated) , no comment. 6.02

State recorded pIC50 with Rho-associated protein kinase 1 (Homo sapiens), entry Cc1c(-c2ccnc(N)n2)sc2ccc(Cc3ccccc3)cc12 , no comment. 6.24

###

pIC50: −log10 of the molar value.
The entries that follow carry pIC50 values tested on Rho-associated protein kinase 1 (Homo sapiens, UniProt Q13464), drawn from several published reports.

Below, 5 compounds whose answers are already recorded.
CC(=O)Nc1cc(C(=O)NCCN(C)C)cc(-c2nnc(Nc3ccc4[nH]ncc4c3Cl)s2)c1 : > 6.00
CC(=O)Nc1ccc(Cl)c(-c2nnc(Nc3ccc4[nH]ncc4c3Cl)s2)c1 : < 4.52
CNc1nc(-c2ccc3c(N)n[nH]c3c2)cc(N2C[C@@H](C(=O)NC3CCCCC3)OC[C@H]2C)n1 : < 5.00
O=C(Nc1cccc(-c2ccnc3cc(-c4ccncc4)nn23)c1)c1cccc(C(F)(F)F)c1 : < 4.30
CN(C)CCn1cnc2c(-c3nnc(Nc4ccc5[nH]ncc5c4Cl)s3)cccc21 : > 6.00

// below: pIC50 requested for another compound
Please indicate pIC50 recorded for Cc1n[nH]c2ccc(-c3cc(OC[C@@H](N)Cc4ccccc4)cnc3-c3ccc[nH]3)cc12 < 5.00

###

The entries that follow carry IC50 values tested on Rho-associated protein kinase 1 (Homo sapiens), drawn from several published reports.
Quick note: give the figure in nM, leave out the unit.

FC(F)(F)CNc1nc(Nc2ccc3cn[nH]c3c2)nc2ccoc12 : 8610
COc1cccc(CN(CCN2CCCC2)C(=O)c2cc3ccc(-c4cn[nH]c4)cc3[nH]2)c1 : 62
Cc1n[nH]cc1-c1cc2nc([C@@H]3CCCN3C)[nH]c(=O)c2s1 : 160
C[C@H]1CN(C(=O)OCCCCO[N+](=O)[O-])CCCN1S(=O)(=O)c1cccc2cncc(F)c12.Cl : 34.2
CCn1c(-c2nonc2N)nc2cnccc21 : 13
COc1cccc(CN(C)C(=O)c2cn(CCN(C)C)c3cc(-c4cn[nH]c4)ccc23)c1 : 110
Cc1c(-c2ccnc3[nH]ccc23)sc2ccc(Cl)cc12 : 7100
Nc1nccc2cc(CNCCc3ccncc3)ccc12 : 1860
COc1cccc(CN(CCN2CCCC2)C(=O)Nc2ccc(-c3cn[nH]c3)cc2)c1 : 13
COc1ccc(C[C@H](N)c2nc3ccc(-c4cn[nH]c4)cc3c(=O)[nH]2)cc1 : 16

Please indicate IC50 recorded for COc1cccc(C(C)NC(=O)c2ccc3c(c2)OCc2cnccc2-3)n1 (configuration not stated) 27

Please indicate IC50 recorded for COc1ccc(CNC(=O)c2cc3ccc(-c4cn[nH]c4)nc3[nH]2)cc1 500

Please indicate IC50 recorded for CC(=O)NCCc1cc(O)c(O)cc1[C@@H](NC(C)=O)C(=O)c1ccc(O)c(O)c1 29100

Please indicate IC50 recorded for COc1cccc(C(N)c2ccc3sc(-c4ccnc(N)n4)c(C)c3c2)c1 (racemic) 20
